# Assay overview: Renal impairment study: PK after a single 12 mg oral dose of CTP-543
# Assay type: in vivo, human
# Settings: human, plasma, po, 12 mg, single 12 mg oral dose of CTP-543; moderate renal impairment N = 7; outlier excluded; read-out: AUC0-inf (geometric mean)
Metric name: AUC(0-inf)

- Sample smiles: "[2H]C1([2H])C([C@@H](CC#N)n2cc(-c3ncnc4[nH]ccc34)cn2)C([2H])([2H])C([2H])([2H])C1([2H])[2H]"
  Result: "1050 ng·h/mL"

###

# Assay overview: Renal impairment study: PK after a single 12 mg oral dose of CTP-543
# Assay type: in vivo, human
# Settings: human, plasma, po, 12 mg, single 12 mg oral dose of CTP-543; normal renal function N = 8; outlier excluded; read-out: AUC0-inf (geometric mean)

- Sample smiles: "[2H]C1([2H])C([C@@H](CC#N)n2cc(-c3ncnc4[nH]ccc34)cn2)C([2H])([2H])C([2H])([2H])C1([2H])[2H]"
  AUC(0-inf): "843 ng·h/mL"

###

# Assay overview: Renal impairment study: PK after a single 12 mg oral dose of CTP-543
# Type: in vivo, human
# Settings: human, plasma, po, 12 mg, single 12 mg oral dose of CTP-543; normal renal function N = 8; outlier excluded; read-out: AUC0-Tlast (geometric mean)
Metric name: AUC(0-t)

- Sample smiles: "[2H]C1([2H])C([C@@H](CC#N)n2cc(-c3ncnc4[nH]ccc34)cn2)C([2H])([2H])C([2H])([2H])C1([2H])[2H]"
  Result: "836 ng·h/mL"

###

# Assay overview: Renal impairment study: PK after a single 12 mg oral dose of CTP-543
# Assay type: in vivo, human
# Settings: human, plasma, po, 12 mg, single 12 mg oral dose of CTP-543; normal renal function N = 8; outlier excluded; read-out: Vz/F (geometric mean)

- Molecule: "[2H]C1([2H])C([C@@H](CC#N)n2cc(-c3ncnc4[nH]ccc34)cn2)C([2H])([2H])C([2H])([2H])C1([2H])[2H] [CTP-543]"
  Vd/F / L: 85.6

###

# Assay overview: Renal impairment study: PK after a single 12 mg oral dose of CTP-543
# Type: in vivo, human
# Settings: human, plasma, po, 12 mg, single 12 mg oral dose of CTP-543; normal renal function N = 8; outlier excluded; read-out: terminal elimination half-life (geometric mean) (converted)
Metric name: half-life (h)

- Sample smiles: "[2H]C1([2H])C([C@@H](CC#N)n2cc(-c3ncnc4[nH]ccc34)cn2)C([2H])([2H])C([2H])([2H])C1([2H])[2H]"
  Quantitative result: 4.17

###

# Assay overview: Renal impairment study: PK after a single 12 mg oral dose of CTP-543
# Type: in vivo, human
# Settings: human, plasma, po, 12 mg, single 12 mg oral dose of CTP-543; moderate renal impairment N = 7; outlier excluded; read-out: terminal elimination half-life (geometric mean) (converted)
Metric name: half-life (min)

- Sample smiles: "[2H]C1([2H])C([C@@H](CC#N)n2cc(-c3ncnc4[nH]ccc34)cn2)C([2H])([2H])C([2H])([2H])C1([2H])[2H]"
  Metric name: "half-life"
  Quantitative result: 262
